Cited source for all entries: patent US11603368B2

# Tested on: H1N1 (influenza A/New Caledonia/20/99)
# test-method-notes: Antiviral effect on A549 cells infected with H1N1
# Assay type: cell-based, H1N1 A/New Caledonia/20/99 virus
# experimental-context: Influenza A virus, H1N1, A549, 48 h, Human A549 cells, MOI of 0.1, 48 h post-infection, MUNANA hydrolysis readout
measured-attribute: pIC50
Keep in mind that pIC50 stands for -log10 of concentration in molar terms.

Answered examples (5):
molecule	measured-on	pIC50
O=C(Nc1sc2c(c1C(=O)O)CCC(c1ccccc1)C2)c1ccc(OCCO)cc1 (stereo not shown)	H1N1 (influenza A/New Caledonia/20/99)	7.05
COc1ccc(C(=O)Nc2sc3c(c2C(=O)O)C(C)CCC3)c(F)c1 (stereo not shown)	H1N1 (influenza A/New Caledonia/20/99)	6.66
CC1(C)Cc2c(sc(NC(=O)c3ccccc3)c2C(=O)O)CO1	H1N1 (influenza A/New Caledonia/20/99)	5.77
CC(C)(C)C1CCc2c(sc(NC(=O)C3CCCCC3)c2C(=O)O)C1 (stereo not shown)	H1N1 (influenza A/New Caledonia/20/99)	5.83
Cc1ccccc1C(=O)Nc1sc2c(c1C(=O)O)CCC(C)C2 (stereo not shown)	H1N1 (influenza A/New Caledonia/20/99)	6.39

Supply recorded pIC50 for CC1CCCc2sc(NC(=O)c3ccc(OC(F)F)cc3)c(C(=O)O)c21 (stereo not shown) here.
6.68

Supply recorded pIC50 for `COc1ccc(C(=O)Nc2sc3c(c2C(=O)O)CCN(c2ccc(F)cc2C)C3)cc1OC` here.
7.22

Supply recorded pIC50 for Cc1ccccc1C(=O)Nc1sc2c(c1C(=O)O)CCC(C(C)(C)C)C2 (stereo not shown) here.
6.46

Supply recorded pIC50 for `O=C(Nc1sc2c(c1C(=O)O)CCCCC2)c1ccccc1` here.
6.40

Supply recorded pIC50 for `CC1(C)Cc2c(sc(NC(=O)c3ccc(NCC4CCOCC4)cc3)c2C(=O)O)C(C)(C)O1` here.
6.66

* * *

# Test system: H1N1 (influenza A/New Caledonia/20/99)
# test-method-notes: Antiviral effect on A549 cells infected with H1N1
# Assay type: cell-based, H1N1 A/New Caledonia/20/99 virus
# experimental-context: Influenza A virus, H1N1, A549, 48 h, Human A549 cells, MOI of 0.1, 48 h post-infection, MUNANA hydrolysis readout
# log10(IC50) listing for each entry below
Record value = log10 of IC50 given in nM.

compound	measured-attribute	value
CC(C)(C)C1CCc2c(sc(NC(=O)c3ccc(OCCO)cc3)c2C(=O)O)C1 (stereo not shown) [#12]	log10(IC50)	2.65

Supply recorded log10(IC50) for O=C(Nc1sc2c(c1C(=O)O)CCN(c1ccccc1)C2)c1ccccc1 [#52] here.
1.95

* * *

# Tested on: H1N1 (influenza A/New Caledonia/20/99)
# test-method-notes: Antiviral effect on A549 cells infected with H1N1
# Assay type: cell-based, H1N1 A/New Caledonia/20/99 virus
# experimental-context: Influenza A virus, H1N1, A549, 48 h, Human A549 cells, MOI of 0.1, 48 h post-infection, MUNANA hydrolysis readout
measured-attribute: pIC50
Keep in mind that pIC50 stands for -log10 of concentration in molar terms.

State, for H1N1 (influenza A/New Caledonia/20/99), measured pIC50 of the compound listed here: CC(C)(C)C1CCc2c(sc(NC(=O)c3ccc4c(c3)OC(F)(F)O4)c2C(=O)O)C1 (centres unmarked)
6.08

State, for H1N1 (influenza A/New Caledonia/20/99), measured pIC50 of the compound listed here: COc1cc(C(=O)Nc2sc3c(c2C(=O)O)CCC(C(C)(C)C)C3)cc(OC)c1OC (centres unmarked)
5.97

State, for H1N1 (influenza A/New Caledonia/20/99), measured pIC50 of the compound listed here: `COc1ccc(C(=O)Nc2sc3c(c2C(=O)O)CCN(c2ccc(F)cc2)C3)cc1OC`
5.86

State, for H1N1 (influenza A/New Caledonia/20/99), measured pIC50 of the compound listed here: `O=C(Nc1sc2c(c1C(=O)O)CCC2)c1ccc(NCC2CCOCC2)cc1`
6.59

State, for H1N1 (influenza A/New Caledonia/20/99), measured pIC50 of the compound listed here: `COCCNc1ccc(C(=O)Nc2sc3c(c2C(=O)O)CC(C)(C)OC3(C)C)cc1`
6.01

State, for H1N1 (influenza A/New Caledonia/20/99), measured pIC50 of the compound listed here: `CC1(C)Cc2c(sc(NC(=O)c3ccc(NC4CCOCC4)cc3)c2C(=O)O)C(C)(C)O1`
5.86
